- PROCEDURE_DETAILS: Cellular toxicity, inhibition of F5000 cell multiplication (Test II)
- Format: cell-based
- COND: human, f5000 cells, 1000 μM
ATTRIBUTE_MEASURED: inhibition at 48 h, 1000 µM

Look at this compound and give its reported inhibition at 48 h, 1000 µM. Nc1nc2c(ncn2CC(CO)CCO)c(=O)[nH]1 (racemic) [VSA 671]
55%

====

- PROCEDURE_DETAILS: Cellular toxicity, inhibition of H9 cell multiplication (Test II)
- Type: cell-based
- COND: human, H9 cells, 100 μM
ATTRIBUTE_MEASURED: inhibition at 48 h, 100 µM (%)
Please state the figure in %; there is no need to write the unit.

Look at this compound and give its reported inhibition at 48 h, 100 µM. Nc1nc2c(ncn2CC(CO)CCO)c(=O)[nH]1 (single isomer, unassigned; (-))
5
